System: Balb/c mice
Test: Detection of peptide immunogenicity by polypeptide chip: vaccine peptide-specific signal sequencing (timing-sequence response, Fisher exact test)
Type: in vivo
Settings: Embodiment IV; 7-peptide mixed solution with adjuvant: Mix 1 AddaVax, 2 Imject Alumn, 3 Alhydrogel, 4 Adju-Phos, 5 MA103A, 6 MA103B
For each entry below, report its Intersection of A and B value.
Give bare numbers.

Some solved entries appear below for comparison.
SUBSTANCE: 5 (GRLQSLQTY; SARS-CoV-2) [compound 5]
OBSERVED: 3
//
SUBSTANCE: 4 (ALDPLSETKCT; SARS-CoV-2) [compound 4]
OBSERVED: 0
//
SUBSTANCE: 3 (SVYAWNRKR; SARS-CoV-2) [compound 3]
OBSERVED: 2
//
SUBSTANCE: 1 (YTNDKACPL; SARS-CoV-2) [compound 1]
OBSERVED: 0

Under Balb/c mice, report Intersection of A and B for 2 (RGGSYTNDKAC; SARS-CoV-2) [compound 2]
3
